- TEST DESCRIPTION: NCI Yeast Anticancer Drug Screen. Data for the rad50 strain (AID 155)
- CONDITION SUMMARY: S. cerevisiae rad50 strain growth inhibition; at 3.7 µM
The panel holds about 79,000 compounds, 15% with a hit somewhere; the sample as a whole holds those more often. Calls of active or inactive are those of the source. No stated cut-off is given here; in the data, active means growth inhibition above about 70%; inactive means the rest.
Please reply with one of these outcomes: True for active, False for inactive

Completed entries (count: 3):
>>> category("Nc1nc(-c2cccnc2)cc(-c2cc(-c3cccnc3)nc(N)n2)n1")
"False"
>>> category("Cc1c(C(Cc2ccccc2N(C)C(=O)/C=C\\C(=O)O)c2c[nH]c3ccccc23)c2ccccc2n1C (stereo unspecified)")
"False"
>>> category("Cc1cc(CO)c(O)c(CNCc2cc(C)cc(CO)c2O)c1")
"False"

Prompt line: Hi team, can someone confirm the assay call for Cc1ccc(CSC(N)=Nc2ccccc2)cc1C ?
Response line: False

Prompt line: Hi team, can someone confirm the assay call for O=[N+]([O-])/C=C/c1ccc2ccccc2c1 ?
Response line: True

Prompt line: Hi team, can someone confirm the assay call for CCc1ccc(NS(=O)(=O)c2ccccc2)c([N+](=O)[O-])c1 ?
Response line: False

Prompt line: Hi team, can someone confirm the assay call for O=C(OCC=C1CCCC1)c1cc([N+](=O)[O-])cc([N+](=O)[O-])c1 ?
Response line: False

Prompt line: Hi team, can someone confirm the assay call for O=[n+]1c2ccc(Cl)cc2n([O-])c2ccc(Cl)cc21 ?
Response line: False

Prompt line: Hi team, can someone confirm the assay call for O=C(Nc1ccc(Cl)cc1)OCC#CCCl ?
Response line: False

Prompt line: Hi team, can someone confirm the assay call for O=C1C=CC(=O)c2c(O)c(Nc3ccc(OC(F)(F)F)cc3)c(Cl)c(O)c21 ?
Response line: False

Prompt line: Hi team, can someone confirm the assay call for N#CN1C2CCC1CC(=O)C2 ?
Response line: False
